Entry source: paper doi:10.1101/2025.06.05.658000

Target: HLA-DR (DRA1*01:01 / DRB1*14:01), soluble knob-into-hole Fc heterodimer (human)
Assay: ELISA
No end group written: not given here.

binder: KPVSKMRMATPLLMQALPM (also: biotin-labeled) [biotin-labeled human Class II-associated Invariant Chain Peptide (Bio-CLIP)]
Kd, nM: 9.17
